Values compiled from paper PMC6695747.

test system: MCF-7 (breast adenocarcinoma); assay: Cytotoxicity MTT assay, MCF-7; format: cell-based; settings: Homo sapiens, MCF7, 72 h, read-out: IC50 MCF-7
parameter: IC50

compound | parameter | observed
NC(=O)c1ccc(N)nc1 [Compound 6-AN, 6-aminonicotinamide, reference compound] | IC50 | 2000 nM

----------
system: MCF-7 (breast adenocarcinoma); experiment: Cytotoxicity MTT assay, MCF-7; format: cell-based; details: Homo sapiens, MCF7; alone, 72 hours, MTT; read-out: IC50 MCF-7
pIC50: −log10 of the molar value.
parameter: pIC50

molecule | parameter | observed
COc1cc(NC(C)CCCNC(=O)/C=C/C(=O)Nc2cccc(C(F)(F)F)c2)c2ncccc2c1 (centres unmarked) | pIC50 | ≤ 4.00
COc1cc(NC(C)CCCNC(=O)/C=C/C(=O)Nc2ccc(C(F)(F)F)cc2)c2ncccc2c1 (centres unmarked) | pIC50 | ≤ 4.00

----------
tested on: HEK293T (non-tumour embryonic kidney); experiment: Cytotoxicity MTT assay, HEK293T; format: cell-based; settings: Homo sapiens, HEK-293T, 72 h, read-out: IC50 HEK293T
pIC50: −log10 of the molar value.
parameter: pIC50

molecule | observed
NC(=O)c1ccc(N)nc1 [Compound 6-AN, 6-aminonicotinamide, reference compound] | 5.00
